Data origin, for the record: the supplement of paper PMC6555819

Test system: PPARa:RXRa (NR concentration 270 nM, RXRa partner concentration 90 nM)
Assay: PBM binding z-score (relative to random genomic background probes); higher = stronger binding; sequences stand for … in GC…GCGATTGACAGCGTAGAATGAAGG
Entry flag: TRUE if PBM binding z-score reaches 4; FALSE if it does not.

sequence_code=TCGAGTAGGATACGGGGGCATTCAGGGATGAAGA measured_on="PPARa:RXRa (NR concentration 270 nM, RXRa partner concentration 90 nM)" group_label=FALSE
sequence_code=CCGAGTAGGTTACGAGGGGGCATTGAGTGCGAAT measured_on="PPARa:RXRa (NR concentration 270 nM, RXRa partner concentration 90 nM)" group_label=FALSE
sequence_code=TAGCCTAGGTCCTTCAGGGGCCAGTATAGAAAGC measured_on="PPARa:RXRa (NR concentration 270 nM, RXRa partner concentration 90 nM)" group_label=FALSE
sequence_code=CGAACTAGGTCACCAGGACTGTGAAGAGGTTGGA measured_on="PPARa:RXRa (NR concentration 270 nM, RXRa partner concentration 90 nM)" group_label=TRUE
sequence_code=GCTAGTAGGTCAGTAAAAGGTCACACACCGGTCG measured_on="PPARa:RXRa (NR concentration 270 nM, RXRa partner concentration 90 nM)" group_label=TRUE
sequence_code=ATATATAGGTTAGGGTCATTCAGAAAGTAGGGAA measured_on="PPARa:RXRa (NR concentration 270 nM, RXRa partner concentration 90 nM)" group_label=TRUE

###

Tested on: LXRa:RXRa (NR concentration 270 nM, RXRa partner concentration 90 nM)
Assay: PBM binding z-score (relative to random genomic background probes); higher = stronger binding; sequences stand for … in GC…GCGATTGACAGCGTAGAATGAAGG
Classes based on PBM binding z-score: b0 (below 0.4), b1 (0.4 to below 3), b2 (3 or more)

sequence_code=CCTCGGAGGACAACAGGAGGTCAAAGCTGCCAGA group_label=b2
sequence_code=CGAACTAGGTCAAAGGAGAGTGAAAGGCGACGTA group_label=b1
sequence_code=CGTCCAAGCTCAGCAGGTCAGTGAAAGCGACGTG group_label=b0
sequence_code=CCGAGTAGGTTACGGGGGGGCATTCAGTGCGAAT group_label=b2
sequence_code=CTATGTAGGTTAAGGGGCTCATTCAGTTTGAAAG group_label=b0
sequence_code=TCGAGTAGGTTACGCGGGCATTCAGGGATGAAGA group_label=b1
sequence_code=CGGACTAGGTCAAAGGACAGTGAAAGGCGACGTA group_label=b1
sequence_code=CGAACTAGGACAAAGGACAGTGAAAGGCGACGTA group_label=b0
sequence_code=TCGAGTACGTTACGGGGGCATTCAGGGATGAAGA group_label=b1
sequence_code=TCGAGTAGGTTACTGGGGCATTCAGGGATGAAGA group_label=b0

###

System: RARg homodimer (NR concentration 270 nM)
Test: PBM binding z-score (relative to random genomic background probes); higher = stronger binding; sequences stand for … in GC…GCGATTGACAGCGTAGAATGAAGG
recorded.endpoint: PBM binding z-score

sequence_code=CCTACTGGGCCATTCAGAGGTCATTGATCATATG measured=2.99
sequence_code=TCGAGTAGGTTAAGGGGGCATTCAGGGATGAAGA measured=2.01
sequence_code=CAAACTAGGTCACGAAAGGTCAAAGTTGAATGAC measured=8.58
sequence_code=CTATGTAGTTTAAGGGGGTCATTCAGTTTGAAAG measured=3.58
sequence_code=TCGAGCAGGTTACGGGGGCATTCAGGGATGAAGA measured=2.29
sequence_code=TCGAGTAGGTTACGTGGGCATTCAGGGATGAAGA measured=0.607
sequence_code=CCGAGTAGGTTACAAGGGGGCATTCAGTGCGAAT measured=2.42
sequence_code=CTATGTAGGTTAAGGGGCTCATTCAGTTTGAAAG measured=0.331
sequence_code=TCATATAGGTAAAAGGTCAAAGTCGGTGTGGTAA measured=5.95
sequence_code=CAAAGTAGGTCACCGGAAGGTCAAAGTCCGCATG measured=7.72
sequence_code=TCGAGTAGGTTACGGGGGCATTCCGGGATGAAGA measured=2.56
sequence_code=CGTCAAAGTTAAAGGTAACGTAACAGAAAGCAGC measured=0.833
sequence_code=CGAACTAGCTCAAAGGACAGTGAAAGGCGACGTA measured=0.6
sequence_code=ACTCGGAGGGCAAAGGTCAGAGCTACGCCAGTGA measured=5.86
sequence_code=ATATGTAGGTTAGGGACATTCAGAAAGTAGGGAA measured=1.27
sequence_code=CCCACTGGGGCAAAGGTTACCATACTCAGTACGA measured=1.81
sequence_code=CTATGTAGGTTAAGGGGGTCCTTCAGTTTGAAAG measured=1.26
sequence_code=GCTCGGAGGACAAGGTCACAGCTTTGTCCGTAGA measured=4.75
sequence_code=CCTAGTTGGTCAGGGGGTCACACACCGGATATGA measured=4.22
sequence_code=CTAACTAGGTCACCAGGACAGTGAAGAGGTTGGA measured=5.53
sequence_code=CCGAGTAGGTTACGAGGCGGCATTCAGTGCGAAT measured=0.173
sequence_code=TCGAGTAGGTTACGGGCGCATTCAGGGATGAAGA measured=0.202
sequence_code=ATTTGTAGGTTAGGGTCATTCAGAAAGTAGGGAA measured=3.72
sequence_code=ATCTCTAGGTAAAGTTCAGCGAAAGATCGATAGA measured=2.95
sequence_code=CCTCGGAGGACAGAAGGTCAGATCTGTCCGCTTT measured=3.53
sequence_code=CCGACTGGGGCAAAGGTTACCATGCTCAGTACGA measured=1.55
